Numbers sourced from ChEMBL document CHEMBL3352097.

biological target: Transcription factor Jun (Rattus norvegicus); assay: Inhibition of AP-1-mediated collagenase production in IL1alpha-stimulated Lewis rat synovial cells
Sequence (P17325 whole entry): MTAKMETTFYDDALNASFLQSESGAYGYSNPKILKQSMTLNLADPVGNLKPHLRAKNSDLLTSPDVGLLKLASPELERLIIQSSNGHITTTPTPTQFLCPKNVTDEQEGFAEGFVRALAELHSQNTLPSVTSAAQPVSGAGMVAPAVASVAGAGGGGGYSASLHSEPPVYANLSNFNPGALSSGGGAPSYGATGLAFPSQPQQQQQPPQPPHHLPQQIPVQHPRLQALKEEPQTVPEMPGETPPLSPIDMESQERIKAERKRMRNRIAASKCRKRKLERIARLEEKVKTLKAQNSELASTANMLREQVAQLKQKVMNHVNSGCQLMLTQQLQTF
Attribute measured: pIC50
Would you please state pIC50, meaning minus log10 of the concentration in mol/L, as a bare number?

Lab note: measured pIC50 of "CCCc1c(C(=O)O)c(O)cc2c1C(=O)c1c(O)cccc1C2=O" was 4.22

* * *

target: Transcription factor Jun (Homo sapiens, UniProt P05412); test: Inhibition of AP-1-mediated transcriptional activation in HEK293 cells by luciferase reporter gene assay; type: cell-based
Sequence (P05412 whole entry): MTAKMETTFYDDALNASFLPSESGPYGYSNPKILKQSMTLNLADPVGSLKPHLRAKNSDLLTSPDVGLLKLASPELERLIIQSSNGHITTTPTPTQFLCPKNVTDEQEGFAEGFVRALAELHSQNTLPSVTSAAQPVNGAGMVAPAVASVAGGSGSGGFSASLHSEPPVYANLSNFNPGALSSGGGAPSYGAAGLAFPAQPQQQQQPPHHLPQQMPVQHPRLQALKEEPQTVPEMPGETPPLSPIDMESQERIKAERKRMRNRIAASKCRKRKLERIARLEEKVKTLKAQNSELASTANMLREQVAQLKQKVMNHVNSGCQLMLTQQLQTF
Attribute measured: pIC50
Schema: pIC50 number; meaning minus log10 of the concentration expressed in molar units.

# annotated cases, reported pIC50 shown
Structure smiles	pIC50
CC(=O)c1ccc(-n2c(-c3cc(-c4ccncc4)c(N4CCOCC4)s3)nc3ccccc3c2=O)cc1	5.30
CNc1nc(C)c(-c2nc3ccccc3c(=O)n2-c2ccccc2C)s1	5.26
Cc1nc(Nc2ccc(Cl)cc2)sc1-c1nc2ccccc2c(=O)n1-c1ccc(Cl)cc1	5.92
CNc1nc(-c2ccccc2)c(-c2nc3ccccc3c(=O)n2-c2ccccc2OC)s1	6.30
CNc1nc(C)c(-c2nc3ccccc3c(=O)n2-c2ccc(Cl)cc2)s1	5.92

Field: next compound
Form field, pIC50 with Transcription factor Jun (Homo sapiens, UniProt P05412), item "Cc1ccccc1-n1c(-c2sc(Nc3ccccc3)nc2C)nc2ccccc2c1=O" : 5.26

* * *

biological target: UniProt P05412; test: Inhibition of AP-1 (unknown origin) expressed in TPA-stimulated mouse NIH3T3 cells by luciferase reporter gene assay; type: cell-based
Attribute: pIC50
The quantity pIC50 is defined as the negative base-10 logarithm of the molar concentration.

Structure smiles	Attribute measured	Readout value
CC(C)COc1ccc(C(=O)c2ccc(OCC(C)C)c(CCC(=O)O)c2)cc1	pIC50	5.30

Attention now shifts to the item below.
pIC50 in this record for "O=C(O)CCc1cc(C(=O)c2ccc(OC3CCCC3)cc2O)ccc1OCc1ccc2c(O)noc2c1" : 5.00

* * *

Collected inhibition values appear next to each entry.
target: UniProtKB P05412; assay: Inhibition of AP-1-mediated transcriptional activation in human HeLa cells at 10 ug/ml; format: cell-based
Provide the reading as a plain figure in %.

Structure smiles	Experimental target	inhibition [%]
O=C(Nc1cc(C(F)(F)F)cc(C(F)(F)F)c1)c1cc(I)ccc1O	UniProtKB P05412	82.4
O=C(Nc1cc(Cl)cc(Cl)c1)c1cc(Br)ccc1O	UniProtKB P05412	83.8
O=C(Nc1cc(Cl)cc(Cl)c1)c1cc(Cl)ccc1O	UniProtKB P05412	74.8
O=C(Nc1cc(Cl)cc(Cl)c1)c1cc(I)ccc1O	UniProtKB P05412	75.4
O=C(Nc1cc(C(F)(F)F)cc(C(F)(F)F)c1)c1cc(Br)ccc1O	UniProtKB P05412	91.2

Here is another compound to look at.
The reported inhibition of the compound "O=C(Nc1cc(C(F)(F)F)cc(C(F)(F)F)c1)c1cc(Cl)ccc1O" was 89.1

* * *

biological target: Transcription factor Jun (Homo sapiens); assay: Inhibition of AP-1 (unknown origin) binding to AP-1 oligonucleotide by gel shift assay
Attribute measured: pIC50
Lab note: report pIC50 as minus log10 of the concentration in molar units, number only.

"CCCc1c(C(=O)O)c(O)cc2c1C(=O)c1c(O)cccc1C2=O" has a reported pIC50 of 4.00
